The following compounds have recorded pKi on human O-GlcNAcase (Homo sapiens).
Sequence (O60502 whole entry): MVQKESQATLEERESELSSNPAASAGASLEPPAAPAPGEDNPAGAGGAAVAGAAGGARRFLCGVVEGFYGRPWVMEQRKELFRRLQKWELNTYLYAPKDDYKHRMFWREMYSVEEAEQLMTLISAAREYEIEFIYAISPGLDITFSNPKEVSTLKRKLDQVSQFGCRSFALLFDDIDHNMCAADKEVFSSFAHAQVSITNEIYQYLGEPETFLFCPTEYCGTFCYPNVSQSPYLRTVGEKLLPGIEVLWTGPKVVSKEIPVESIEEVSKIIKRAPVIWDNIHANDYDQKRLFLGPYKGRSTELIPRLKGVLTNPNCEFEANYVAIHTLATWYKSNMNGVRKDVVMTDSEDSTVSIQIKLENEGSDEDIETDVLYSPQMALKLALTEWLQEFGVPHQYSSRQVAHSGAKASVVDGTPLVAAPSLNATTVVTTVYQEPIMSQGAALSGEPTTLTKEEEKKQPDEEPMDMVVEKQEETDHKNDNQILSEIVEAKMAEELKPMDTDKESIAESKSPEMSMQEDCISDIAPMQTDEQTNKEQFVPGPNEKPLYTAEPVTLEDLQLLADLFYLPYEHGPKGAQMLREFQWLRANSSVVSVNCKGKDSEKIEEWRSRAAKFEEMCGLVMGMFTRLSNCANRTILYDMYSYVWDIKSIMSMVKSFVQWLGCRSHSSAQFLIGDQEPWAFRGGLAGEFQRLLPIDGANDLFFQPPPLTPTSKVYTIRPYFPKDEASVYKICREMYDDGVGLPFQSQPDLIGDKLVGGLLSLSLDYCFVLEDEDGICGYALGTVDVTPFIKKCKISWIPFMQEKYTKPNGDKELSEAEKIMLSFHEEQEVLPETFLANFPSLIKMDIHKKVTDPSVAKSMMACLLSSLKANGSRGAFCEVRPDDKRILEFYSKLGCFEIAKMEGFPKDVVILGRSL
// returns pKi (minus log10 of molar concentration), number only

compound	pKi
CC(=O)NC[C@@H]1[C@@H](O)[C@H](O)[C@@H](CO)N1CCCc1ccccc1	6.43
CC(=O)NCC1[C@@H](O)[C@H](O)[C@@H](CO)N1CCc1ccccc1 (some centres unmarked) [reference compound]	6.46
CC(=O)NC[C@@H]1[C@@H](O)[C@H](O)[C@@H](CO)N1CCc1ccc(-c2ccccc2)cc1	7.10
CCCN1C(CNC(C)=O)[C@@H](O)[C@H](O)[C@H]1CO (some centres unmarked) [reference compound]	5.69
CC(=O)NC[C@@H]1[C@@H](O)[C@H](O)[C@@H](CO)N1CCCc1ccc(-c2ccccc2)cc1	7.80
CCCCN1C(CNC(C)=O)[C@@H](O)[C@H](O)[C@H]1CO (some centres unmarked) [reference compound]	5.99
CC(=O)NC[C@@H]1[C@@H](O)[C@H](O)[C@@H](CO)N1Cc1ccc(-c2ccccc2)cc1	5.34
CCNC(=O)C[C@@H]1[C@@H](O)[C@H](O)[C@@H](CO)N1CCCc1ccc(OC)cc1	6.88

Next:
Form field pKi for item CC(=O)NC[C@@H]1[C@@H](O)[C@H](O)[C@@H](CO)N1Cc1cccnc1 on human O-GlcNAcase (Homo sapiens): 5.57
